Data credit: paper PMC4336329

For each of the compounds below, state its hERG current change (%, negative = inhibition) at 10uM.
- Target system: human ether-à-go-go-related gene (hERG) potassium channel (human)
- Experiment summary: primary screen, population patch clamp on CHO cells stably expressing hERG; higher = less effect of the substance
The campaign covered roughly 310,000 compounds. About 14,000 (4.5%) showed an effect of 50% or more. The effect is printed as a negative number. For the sample, strong results were picked, then their nearest neighbours and some compounds at random.
One number for each entry, in %.

Answered cases to consult:
Compound	Target system	Val
CC(=O)Nc1ccc(S(=O)(=O)Nc2cc(-c3ccccc3)nn2C)cc1	human ether-à-go-go-related gene (hERG) potassium channel (human)	18.5
O=C(Nc1ccc(S(=O)(=O)NCc2ccco2)cc1)c1ccc2ccccc2n1	human ether-à-go-go-related gene (hERG) potassium channel (human)	-0.235
O=C(COc1ccc(Cl)cc1)NCCCNC(=O)c1ccncc1	human ether-à-go-go-related gene (hERG) potassium channel (human)	-36.1
CCn1cc(C(=O)NCc2ccco2)c(=O)c2cc(F)c(N3CCN(C(=O)c4ccco4)CC3)cc21	human ether-à-go-go-related gene (hERG) potassium channel (human)	-26.4
CCn1cc(C(=O)NCc2cccc(F)c2)c(=O)c2cc(F)c(N3CCN(C(=O)c4ccco4)CC3)cc21	human ether-à-go-go-related gene (hERG) potassium channel (human)	-21
O=C(Cc1ccccc1)NC(=S)Nc1ccc(OC(F)F)cc1	human ether-à-go-go-related gene (hERG) potassium channel (human)	-2.31
COCCCN1CC(=O)N2C(c3ccccc3)c3[nH]c4ccccc4c3C[C@H]2C1=O (stereo partly drawn)	human ether-à-go-go-related gene (hERG) potassium channel (human)	-11.3
Cc1nc2nc(SCC(=O)Nc3cccc(F)c3)[nH]c2cc1Br	human ether-à-go-go-related gene (hERG) potassium channel (human)	23.2

Look up hERG current change (%, negative = inhibition) at 10uM for the entries below, preserving their order.
1. Cc1ccc(C2(C)NC(=O)N(CC(=O)N(Cc3ccccc3)C(C)(C)C)C2=O)cc1 (stereo not drawn)
2. COCCNC(=S)N/N=C/c1c2ccccc2cc2ccccc12
3. CSc1cccc(NC(=S)N(CCC(C)C)C2CCN(C(C)C)CC2)c1
4. Cc1nc(-c2ccc(NC(=O)c3ccc(Br)o3)cc2)cs1
5. COc1ccc(OC)c(-c2csc(NC(=O)C3c4ccccc4Oc4ccccc43)n2)c1
6. CC1(C)CC(=O)C2=C(C1)NC(=O)NC2c1ccc(Cl)cc1 (stereo not drawn)

output:
[-1.1, 15.5, -52.5, 4.44, -5.7, 17.3]

For the 4 compounds below, give their hERG current change (%, negative = inhibition) at 10uM values.
1. CCn1cc(C(=O)NCC(C)C)c(=O)c2cc(F)c(N3CCN(C(=O)c4ccco4)CC3)cc21
2. CCOc1ccc(NC(=O)N(CCC(C)C)C2CCN(C(C)=O)CC2)cc1
3. CCOC(=O)c1sc(=S)n(C)c1NC(=O)c1ccc(C(C)(C)C)cc1
4. CCCCNC(=O)c1cn(CC)c2cc(N3CCN(C(=O)c4ccco4)CC3)c(F)cc2c1=O

output:
1. -59.9
2. -9.87
3. 11.8
4. -33.8

I'm hoping you can list hERG current change (%, negative = inhibition) at 10uM for every compound here, please.
1. COc1cc2c3c(c1)/C(=C1/SC(=S)NC1=O)C(=O)N3C(C)(C)C=C2C
2. COc1ccc(NC(=S)N(C(C)C)C2CCN(C(C)C)CC2)cc1Cl

output:
1: 2.71; 2: 0.307

* * *

Would you kindly list hERG current change (%, negative = inhibition) at 10uM for each of these molecules?
- Target system: human ether-à-go-go-related gene (hERG) potassium channel (human);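 further: peak tail current of the secondary pulse compared with the same well before compound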
- Experiment summary: primary screen, population patch clamp on CHO cells stably expressing hERG; higher = less effect of the substance
About 14,000 (4.5%) of roughly 310,000 compounds showed an effect of 50% or more. Effects have a minus sign here. The sample as a whole holds a higher share of strong results than the screen did.
Numbers only, in %.

In the examples that follow, each entry is paired with its recorded hERG current change (%, negative = inhibition) at 10uM.
Molecule	Val
Cn1c2ccccc2c2cnn(CC(=O)N3CCCCC3)c(=O)c21	-10.4
CCCCC1=NN(C(=O)c2ccncc2)C(O)(C(F)(F)F)C1 (stereo not shown)	23.1
O=C(c1ccc(COc2ccc(F)cc2)o1)n1cccn1	4.97

input: Please give the measured hERG current change (%, negative = inhibition) at 10uM for this molecule: COc1ccc(CNC(=O)c2cccc(-c3ccc(C)c4ccccc34)n2)cc1
output: -24

* * *

Assign hERG current change (%, negative = inhibition) at 10uM to each entry below.
- Target system: human ether-à-go-go-related gene (hERG) potassium channel (human);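 further: peak tail current of the secondary pulse compared with the same well before compound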
- Experiment summary: primary screen, population patch clamp on CHO cells stably expressing hERG; higher = less effect of the substance
The whole screen tested about 310,000 compounds, of which about 14,000 (4.5%) showed an effect of 50% or more. Effects have a minus sign here. This is one part of a sample in which strong results are shown more often than they occur.
Report as: number unit

Before answering, review these 3 worked examples.
Compound	Val
CC(C)c1ccc(N2C(=NC(=O)C3CCCO3)SC3CS(=O)(=O)CC32)cc1 (stereo not shown)	-9.87%
CCOc1ccccc1NC1=C(Cl)C(=O)N(c2ccc(OC)cc2)C1=O	-10.4%
CCOc1ccc(NC(=O)c2ccccc2NC(=O)CN2CCN(C(C)=O)CC2)cc1	-3.2%

// switching to the query compound
input: Need hERG current change (%, negative = inhibition) at 10uM, item O=C1C2C3C=CC(C3)C2C(=O)N1c1n[nH]c(-c2cccnc2)n1 (stereo not shown)
output: 11.1%

* * *

Hi there, I'd appreciate the recorded hERG current change (%, negative = inhibition) at 10uM for every entry that follows.
- Target system: human ether-à-go-go-related gene (hERG) potassium channel (human);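 further: peak tail current of the secondary pulse compared with the same well before compound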
- Experiment summary: primary screen, population patch clamp on CHO cells stably expressing hERG; higher = less effect of the substance
- Protocol: Briefly, Chinese hamster ovary (CHO) cells stably expressing the hERG channel were dislodged from tissue culture flasks and dispensed into PPC plates. […] During the recording, background leak currents were estimated by a 100 ms step to -80 mV from an initial holding potential of -70 mV and subtracted from the subsequent current measurement. The campaign was conducted in two phases using slight differences in recording protocol. […]
The campaign covered roughly 310,000 compounds. About 14,000 (4.5%) showed an effect of 50% or more. Effects have a minus sign here. Many of the other results were omitted from the sample, so strong results are more common in it than they were.
Give bare numbers, in %.

Compound	Quantity unit	Val
CCOc1ccc(N2CC(C(=O)Nc3ccccc3F)CC2=O)cc1 (centres unmarked)	%	-13.5

Would you mind listing hERG current change (%, negative = inhibition) at 10uM for each of the following compounds?
1. Cc1nn(C)c2ncc(C(N)=O)c(Oc3ccc(Cl)cc3)c12
2. CC(C)Oc1ccc(N2CC(C(=O)Nc3ccccc3F)CC2=O)cc1 (centres unmarked)
3. COc1ccc(/C=C/CN2CCCC(C(=O)c3cc(F)ccc3F)C2)cc1 (centres unmarked)
4. CSCC(=O)N1CCCC(C(=O)c2cc(F)ccc2F)C1 (centres unmarked)

output:
7.24
-17.2
-76.4
-1.1

* * *

- Target system: human ether-à-go-go-related gene (hERG) potassium channel (human, UniProt Q12809);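 further: peak tail current of the secondary pulse compared with the same well before compound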
- Sequence (Q12809 whole entry, looked up): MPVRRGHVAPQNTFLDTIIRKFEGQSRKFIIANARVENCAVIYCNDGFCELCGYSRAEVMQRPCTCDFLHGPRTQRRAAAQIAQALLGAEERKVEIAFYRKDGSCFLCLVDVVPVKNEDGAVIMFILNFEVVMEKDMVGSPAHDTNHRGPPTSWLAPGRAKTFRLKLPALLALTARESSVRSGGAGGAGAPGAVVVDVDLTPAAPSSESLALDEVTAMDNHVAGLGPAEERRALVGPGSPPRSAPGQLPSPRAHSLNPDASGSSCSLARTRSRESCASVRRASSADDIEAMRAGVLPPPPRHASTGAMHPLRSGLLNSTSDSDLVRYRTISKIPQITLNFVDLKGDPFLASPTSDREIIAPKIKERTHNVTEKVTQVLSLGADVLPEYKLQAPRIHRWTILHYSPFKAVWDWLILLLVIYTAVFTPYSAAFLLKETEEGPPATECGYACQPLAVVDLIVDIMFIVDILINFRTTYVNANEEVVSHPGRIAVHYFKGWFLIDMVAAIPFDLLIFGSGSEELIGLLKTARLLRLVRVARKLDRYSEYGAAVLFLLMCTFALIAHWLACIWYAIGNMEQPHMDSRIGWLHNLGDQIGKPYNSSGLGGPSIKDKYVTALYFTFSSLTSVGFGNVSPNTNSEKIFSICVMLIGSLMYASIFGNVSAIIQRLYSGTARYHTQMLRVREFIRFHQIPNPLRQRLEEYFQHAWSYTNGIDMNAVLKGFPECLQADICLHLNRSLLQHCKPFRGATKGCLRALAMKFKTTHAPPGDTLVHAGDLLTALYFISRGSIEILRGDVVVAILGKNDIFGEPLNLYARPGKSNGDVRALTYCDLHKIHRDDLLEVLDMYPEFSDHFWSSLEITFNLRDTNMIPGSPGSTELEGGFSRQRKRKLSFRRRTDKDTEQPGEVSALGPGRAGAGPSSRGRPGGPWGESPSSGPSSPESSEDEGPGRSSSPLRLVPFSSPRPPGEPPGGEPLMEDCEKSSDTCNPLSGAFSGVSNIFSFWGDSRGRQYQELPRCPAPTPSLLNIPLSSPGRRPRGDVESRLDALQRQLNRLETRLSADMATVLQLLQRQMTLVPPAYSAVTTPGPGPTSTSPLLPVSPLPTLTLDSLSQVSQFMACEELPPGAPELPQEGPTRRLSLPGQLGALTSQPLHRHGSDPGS
- Experiment summary: primary screen, population patch clamp on CHO cells stably expressing hERG; higher = less effect of the substance
Screen size: about 310,000 compounds; about 14,000 (4.5%) showed an effect of 50% or more. The effect is printed as a negative number. For the sample, strong results were picked, then their nearest neighbours and some compounds at random.
Experimental readout: hERG current change (%, negative = inhibition) at 10uM (%)
Numbers only, in %.

Compound	Val
CCN(c1ccccc1)S(=O)(=O)c1cccc(C(=O)NCC(c2cccs2)N(C)C)c1 (stereo not drawn)	-48.6
O=C(CNCc1ccccn1)Nc1cc(S(=O)(=O)N2CCCCC2)ccc1Cl	-19
COC(=O)c1ccc2c(c1)NC1=C(C(=O)CC(C)(C)C1)C(c1ccncc1)N2 (stereo not drawn)	-4.48

# map each compound to its hERG current change (%, negative = inhibition) at 10uM
1. Cc1ccc(NC(=O)CCSc2nnc3ccccn23)cc1
2. CCN(CC)CCCNC(=O)c1cc(-c2ccc3c(c2)OCO3)on1
3. CC(C)(C)N(Cc1cc2ccccc2[nH]c1=O)C(=O)C1CCCCC1
4. COc1ccc(C(CNC(=O)c2cccc(N(C)C)c2)N2CCCC2)cc1 (stereo not drawn)
5. CC(C)N1CCN(Cc2nc(-c3ccccc3)cs2)CC1CCO (stereo not drawn)
6. Cc1nn(Cc2ccc(Cl)cc2Cl)c(C)c1NC(=O)C1C2CCC(O2)C1C(=O)O (stereo not drawn)

output:
1: 2.6; 2: -18.8; 3: -11.9; 4: -28.3; 5: -47.7; 6: -9.88

Could you tell me hERG current change (%, negative = inhibition) at 10uM for each of these compounds? They are listed below.
1. O=C(Nc1ccc(Nc2ccccc2)cc1)c1c(Cl)cccc1Cl
2. O=C(Cc1cccs1)Nc1ccc(S(=O)(=O)N2CCCC2)cc1

output:
1: 12.3; 2: 10.6

input: Requested read-out: hERG current change (%, negative = inhibition) at 10uM. Entry: c1ccc(-c2cnc(-c3ccccn3)nn2)cc1
output: 18.6
